Reported Emax values for a set of molecules
system name: THR beta (Homo sapiens, UniProt P10828)
Construct: expressed in transfected cells; host or cells: HEK293T (ATCC CRL-3216)
Sequence (P10828 whole entry): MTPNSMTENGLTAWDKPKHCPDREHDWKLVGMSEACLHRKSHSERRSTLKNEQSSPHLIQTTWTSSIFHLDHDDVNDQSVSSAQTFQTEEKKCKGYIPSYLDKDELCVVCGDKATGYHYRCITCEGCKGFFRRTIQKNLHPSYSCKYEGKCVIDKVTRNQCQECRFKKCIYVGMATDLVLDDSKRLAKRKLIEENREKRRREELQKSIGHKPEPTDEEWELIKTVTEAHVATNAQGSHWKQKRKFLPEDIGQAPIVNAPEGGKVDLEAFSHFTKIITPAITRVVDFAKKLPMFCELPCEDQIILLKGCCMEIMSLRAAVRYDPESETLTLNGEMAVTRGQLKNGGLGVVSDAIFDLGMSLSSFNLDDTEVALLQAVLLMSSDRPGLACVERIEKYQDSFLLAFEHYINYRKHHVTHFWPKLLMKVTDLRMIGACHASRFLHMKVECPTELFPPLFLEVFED
Sequence (P19793 whole entry partner): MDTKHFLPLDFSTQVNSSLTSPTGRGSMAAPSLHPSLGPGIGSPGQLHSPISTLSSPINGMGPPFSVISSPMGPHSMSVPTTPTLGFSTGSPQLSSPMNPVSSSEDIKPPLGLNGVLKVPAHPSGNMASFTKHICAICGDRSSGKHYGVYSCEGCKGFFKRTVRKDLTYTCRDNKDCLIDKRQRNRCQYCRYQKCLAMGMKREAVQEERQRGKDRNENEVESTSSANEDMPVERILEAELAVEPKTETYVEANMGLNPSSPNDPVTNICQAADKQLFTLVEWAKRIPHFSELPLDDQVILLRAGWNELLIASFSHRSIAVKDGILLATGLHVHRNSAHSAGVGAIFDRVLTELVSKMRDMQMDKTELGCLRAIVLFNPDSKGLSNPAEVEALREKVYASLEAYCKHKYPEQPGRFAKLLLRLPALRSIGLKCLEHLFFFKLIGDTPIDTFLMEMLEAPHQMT
experiment notes: HEK293T THR beta/RXR luciferase reporter assay (Assay 2)
Type: cell-based
condition label: HEK-293T; Table 5; Assay 2; THRβ; read-out: Activity category Assay 2 THRβ (Emax)
Protocol: HEK293T Reporter THRalpha/Beta/RXR Reporter Assay (Assay 2) The purpose of this assay is to evaluate the effect of compounds on the thyroid hormone nuclear receptor pathway in HEK293T cells. […] Transfected cells are stimulated with test compounds for 18-24 hours before activation of the thyroid hormone pathway is measured via a luciferase read-out. Procedure. […] Percent agonism is calculated using the following equation: 100× (sample-negative control)/(positive control-negative control).

Sample answers from the record:
- molecule: "CC(C)(O)c1cc(Oc2c(Cl)cc(-n3nc(N)c(=O)[nH]c3=O)cc2Cl)n[nH]c1=O"
  Emax: "> 75%"
- molecule: "Nc1nn(-c2cc(Cl)c(Oc3n[nH]c(=O)cc3-c3ccc4ccccc4c3)c(Cl)c2)c(=O)[nH]c1=O"
  Emax: "< 50%"
- molecule: "Cc1cc(-n2nc(N)c(=O)[nH]c2=O)cc(C)c1Cc1ccc(O)c(-c2ccccc2)n1"
  Emax: "> 75%"

The reported Emax of the molecule Nc1nn(-c2cc(Cl)c(Oc3cc(C4Cc5ccccc54)c(=O)[nH]n3)c(Cl)c2)c(=O)[nH]c1=O (stereo not drawn) was 50 to 75%

The reported Emax of the molecule Nc1nn(-c2cc(Cl)c(Oc3cc(C4CCOCC4)c(=O)[nH]n3)c(Cl)c2)c(=O)[nH]c1=O was > 75%

The reported Emax of the molecule Cc1cc(-n2nc(C#N)c(=O)[nH]c2=O)cc(C)c1Cc1cnc2[nH]cc(C(C)C)c2n1 was > 75%
